# Test Settings: in 1,2-diethoxyethane, 303.15 K
Assay Metric: solubility (mole fraction)
The answer should be written as a number, with no unit following it.

*Q* State its solubility (mole fraction): O=C(O)c1cccc(C(=O)O)c1
*A* 0.00293

###

# Test Settings: in cyclohexanone, 333.15 K
Assay Metric: solubility (mole fraction)
The answer should be written as a number, with no unit following it.

*Q* State its solubility (mole fraction): O=C(O)c1ccccc1C(=O)O
*A* 0.037

###

# Test Settings: in acetophenone, 332.95 K
Form field: solubility (mole fraction) (one value per entry).
The answer should be written as a number, with no unit following it.

- Compound Structure: "O=C(O)c1cccc(C(=O)O)c1"
  solubility (mole fraction): 0.00135

*Q* State its solubility (mole fraction): O=C(O)c1ccccc1C(=O)O
*A* 0.0119

###

# Test Settings: in cyclohexanone, 343.85 K
Assay Metric: solubility (mole fraction)
The answer should be written as a number, with no unit following it.

*Q* State its solubility (mole fraction): O=C(O)c1ccc(C(=O)O)cc1
*A* 0.00053

###

# Test Settings: in 1,2-diethoxyethane, 313.25 K
Assay Metric: solubility (mole fraction)
The answer should be written as a number, with no unit following it.

*Q* State its solubility (mole fraction): O=C(O)c1ccc(C(=O)O)cc1
*A* 0.000294

###

# Test Settings: in 1,2-diethoxyethane, 323.05 K
Assay Metric: solubility (mole fraction)
The answer should be written as a number, with no unit following it.

*Q* State its solubility (mole fraction): O=C(O)c1ccccc1C(=O)O
*A* 0.0228

###

# Test Settings: in THF, 323.35 K
Assay Metric: solubility (mole fraction)

*Q* State its solubility (mole fraction): O=C(O)c1ccc(C(=O)O)cc1
*A* 0.0014

###

# Test Settings: in 1,2-diethoxyethane, 303.3 K
Assay Metric: solubility (mole fraction)

*Q* State its solubility (mole fraction): O=C(O)c1ccc(C(=O)O)cc1
*A* 0.000251

###

# Test Settings: in cyclohexanone, 293.15 K
Assay Metric: solubility (mole fraction)
The answer should be written as a number, with no unit following it.

- Compound Structure: "O=C(O)c1ccccc1C(=O)O"
  Test Result: 0.0176

Let us examine a further case.
*Q* State its solubility (mole fraction): O=C(O)c1ccc(C(=O)O)cc1
*A* 0.000167

###

# Test Settings: in 1,2-diethoxyethane, 333.15 K
Assay Metric: solubility (mole fraction)
The answer should be written as a number, with no unit following it.

*Q* State its solubility (mole fraction): O=C(O)c1ccccc1C(=O)O
*A* 0.0261

###

# Test Settings: in cyclohexanone, 313.15 K
Assay Metric: solubility (mole fraction)

- Compound Structure: "O=C(O)c1cccc(C(=O)O)c1"
  Test Result: 0.00385
- Compound Structure: "O=C(O)c1ccccc1C(=O)O"
  Test Result: 0.0257

Let us examine a further case.
*Q* State its solubility (mole fraction): O=C(O)c1ccc(C(=O)O)cc1
*A* 0.000231

###

# Test Settings: in acetophenone, 313.15 K
Assay Metric: solubility (mole fraction)
The answer should be written as a number, with no unit following it.

- Compound Structure: "O=C(O)c1cccc(C(=O)O)c1"
  solubility (mole fraction): 0.000858

Let us examine a further case.
*Q* State its solubility (mole fraction): O=C(O)c1ccc(C(=O)O)cc1
*A* 1.87e-05

###

# Test Settings: in acetophenone, 343.55 K
Assay Metric: solubility (mole fraction)
The answer should be written as a number, with no unit following it.

*Q* State its solubility (mole fraction): O=C(O)c1ccccc1C(=O)O
*A* 0.0152

###

# Test Settings: in acetophenone, 343.3 K
Assay Metric: solubility (mole fraction)
The answer should be written as a number, with no unit following it.

*Q* State its solubility (mole fraction): O=C(O)c1ccc(C(=O)O)cc1
*A* 0.000116

###

# Test Settings: in THF, 323.15 K
Assay Metric: solubility (mole fraction)

*Q* State its solubility (mole fraction): O=C(O)c1ccccc1C(=O)O
*A* 0.0899

###

# Test Settings: in 1,2-diethoxyethane, 323.35 K
Assay Metric: solubility (mole fraction)
The answer should be written as a number, with no unit following it.

*Q* State its solubility (mole fraction): O=C(O)c1ccc(C(=O)O)cc1
*A* 0.000344

###

# Test Settings: in acetophenone, 303.35 K
Assay Metric: solubility (mole fraction)

*Q* State its solubility (mole fraction): O=C(O)c1ccccc1C(=O)O
*A* 0.0056

###

# Test Settings: in THF, 293.25 K
Assay Metric: solubility (mole fraction)
The answer should be written as a number, with no unit following it.

*Q* State its solubility (mole fraction): O=C(O)c1ccccc1C(=O)O
*A* 0.0697

###

# Test Settings: in THF, 313.45 K
Assay Metric: solubility (mole fraction)
The answer should be written as a number, with no unit following it.

- Compound Structure: "O=C(O)c1ccc(C(=O)O)cc1"
  solubility (mole fraction): 0.00115
- Compound Structure: "O=C(O)c1ccccc1C(=O)O"
  solubility (mole fraction): 0.0826

Let us examine a further case.
*Q* State its solubility (mole fraction): O=C(O)c1cccc(C(=O)O)c1
*A* 0.0169

###

# Test Settings: in 1,2-diethoxyethane, 343.05 K
Assay Metric: solubility (mole fraction)

*Q* State its solubility (mole fraction): O=C(O)c1ccccc1C(=O)O
*A* 0.0302

###

# Test Settings: in acetophenone, 323.05 K
Assay Metric: solubility (mole fraction)

*Q* State its solubility (mole fraction): O=C(O)c1cccc(C(=O)O)c1
*A* 0.00105

###

# Test Settings: in 1,2-diethoxyethane, 333.65 K
Assay Metric: solubility (mole fraction)

*Q* State its solubility (mole fraction): O=C(O)c1ccc(C(=O)O)cc1
*A* 0.000403
